The origin of these recorded values is patent US5077204A.

molecular target: KEX2 endopeptidase (kex2::pJ2B membranes) (Saccharomyces cerevisiae, UniProt P13134); construct: not only includes the KEX2 gene, but also the necessary transcriptional and translational regulatory signals for expression in yeast; expressed in transfected cells; host or cells: S. cerevisiae XBH16-15A (MATalpha kex2-1) containing pJ2B in integrated form; crude membranes; assay: Endopeptidase activity in membranes from kex2 cells containing pJ2B in integrated form; format: biochemical, S. cerevisiae; settings: strain kex2::pJ2B; substrate 0.1 mM; membranes
Peptide text beside a SMILES is read from it. * marks the point of attachment. AMC = Cc1cc(=O)oc2cc(N*)ccc12; Boc = CC(C)(C)OC(=O)*
MEASUREMENT_NAME: Specific Activity

{"columns": ["COMPOUND", "Specific Activity"],
 "data": [
  ["Cc1cc(=O)oc2cc(NC(=O)[C@H](CCCNC(=N)N)NC(=O)[C@H](CO)NC(=O)[C@H](Cc3ccccc3)NC(=O)OC(C)(C)C)ccc12 [Boc--PheSerArg--MCA, Boc-PheSerArg-MCA] (Boc-Phe-Ser-Arg-{AMC})", "3.8 pmoles AMC formed/μg protein 10"]
]}

Hi! Can you tell me Specific Activity for each of these compounds?
1. Cc1cc(=O)oc2cc(NC(=O)[C@H](CCCCN)NC(=O)[C@H](CCCCN)NC(=O)[C@H](CCC(=O)O)NC(=O)OC(C)(C)C)ccc12 [Boc--GluLysLys--MCA, Boc-GluLysLys-MCA] (Boc-Glu-Lys-Lys-{AMC})
2. Cc1cc(=O)oc2cc(NC(=O)[C@@H](N)CCCNC(=N)N)ccc12 [Arg--MCA, Arg-MCA]
3. Cc1cc(=O)oc2cc(NC(=O)[C@@H](N)CC(C)C)ccc12 [Leu--MCA, Leu-MCA]
4. Cc1cc(=O)oc2cc(NC(=O)[C@H](CCCNC(=N)N)NC(=O)[C@H](CCCNC(=N)N)NC(=O)[C@H](CCC(N)=O)NC(=O)OC(C)(C)C)ccc12 [Boc--GlnArgArg--MCA, Boc-GlnArgArg-7-amino-4-methyl-coumarin] (Boc-Gln-Arg-Arg-{AMC})
5. Cc1cc(=O)oc2cc(NC(=O)[C@H](CCCNC(=N)N)NC(=O)c3ccccc3)ccc12 [Bz--Arg--MCA, Bz-Arg-MCA]
6. CC[C@H](C)[C@H](NC(=O)OC(C)(C)C)C(=O)N[C@@H](CCC(=O)O)C(=O)NCC(=O)N[C@@H](CCCNC(=N)N)C(=O)Nc1ccc2c(C)cc(=O)oc2c1 [Boc--IleGluGlyArg--MCA, Boc-IleGluGlyArg-MCA] (Boc-IEGR-{AMC})

A.
["0.5 pmoles AMC formed/μg protein 10", "8.0 pmoles AMC formed/μg protein 10", "37.9 pmoles AMC formed/μg protein 10", "16.7 pmoles AMC formed/μg protein 10", "0.1 pmoles AMC formed/μg protein 10", "0.9 pmoles AMC formed/μg protein 10"]

* * *

Biological target: KEX2 endopeptidase (kex2[YEp24-pJ2B] membranes) (Saccharomyces cerevisiae)
Construct: not only includes the KEX2 gene, but also the necessary transcriptional and translational regulatory signals for expression in yeast; expressed in transfected cells; host or cells: S. cerevisiae XBH16-15A (MATalpha kex2-1) carrying YEp24-pJ2B
Sequence (P13134 114-814): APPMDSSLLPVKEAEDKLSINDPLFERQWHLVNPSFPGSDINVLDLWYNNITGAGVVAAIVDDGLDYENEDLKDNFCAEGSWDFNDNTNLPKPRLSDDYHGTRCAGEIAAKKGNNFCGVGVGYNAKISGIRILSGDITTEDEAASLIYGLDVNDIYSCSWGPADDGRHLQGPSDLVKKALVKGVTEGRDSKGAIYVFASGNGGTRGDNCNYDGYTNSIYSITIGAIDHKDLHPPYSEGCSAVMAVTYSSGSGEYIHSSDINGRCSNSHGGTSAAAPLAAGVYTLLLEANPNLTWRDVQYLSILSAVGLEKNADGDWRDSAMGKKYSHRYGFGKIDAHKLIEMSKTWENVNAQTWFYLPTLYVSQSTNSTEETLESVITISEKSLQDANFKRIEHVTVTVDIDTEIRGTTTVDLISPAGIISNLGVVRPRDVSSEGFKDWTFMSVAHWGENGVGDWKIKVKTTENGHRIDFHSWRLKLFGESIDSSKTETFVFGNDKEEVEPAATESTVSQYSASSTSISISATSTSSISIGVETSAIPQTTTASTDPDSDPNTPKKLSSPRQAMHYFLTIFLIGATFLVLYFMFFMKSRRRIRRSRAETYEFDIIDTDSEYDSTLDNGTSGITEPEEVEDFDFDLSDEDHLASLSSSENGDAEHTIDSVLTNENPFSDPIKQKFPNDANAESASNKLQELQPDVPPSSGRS
Experiment: Endopeptidase activity in membranes from kex2 cells carrying multicopy plasmid pJ2B (over-produced specific endopeptidase)
Assay type: biochemical, S. cerevisiae
Conditions: kex2[YEp24-pJ2B] relative to kex2[YEp24] = [1.0]; substrate 0.1 mM
Peptide text beside a SMILES is read from it. * marks the point of attachment. AMC = Cc1cc(=O)oc2cc(N*)ccc12; Boc = CC(C)(C)OC(=O)*
Assign Relative Ratio to each entry below.
One number for each entry.

Sample answers from the record:
{"columns": ["COMPOUND", "MEASUREMENT_NAME", "READING"],
 "data": [
  ["Cc1cc(=O)oc2cc(NC(=O)[C@@H](N)CCCNC(=N)N)ccc12", "Relative Ratio", 2.1],
  ["CC[C@H](C)[C@H](NC(=O)OC(C)(C)C)C(=O)N[C@@H](CCC(=O)O)C(=O)NCC(=O)N[C@@H](CCCNC(=N)N)C(=O)Nc1ccc2c(C)cc(=O)oc2c1 [Boc--IleGluGlyArg--MCA, Boc-IleGluGlyArg-MCA] (Boc-IEGR-{AMC})", "Relative Ratio", 19.3],
  ["Cc1cc(=O)oc2cc(NC(=O)[C@@H](N)CC(C)C)ccc12", "Relative Ratio", 2.1],
  ["Cc1cc(=O)oc2cc(NC(=O)[C@H](CCCNC(=N)N)NC(=O)c3ccccc3)ccc12", "Relative Ratio", 6.0],
  ["Cc1cc(=O)oc2cc(NC(=O)[C@H](CCCNC(=N)N)NC(=O)[C@H](CCCNC(=N)N)NC(=O)[C@H](CCC(N)=O)NC(=O)OC(C)(C)C)ccc12 [Boc--GlnArgArg--MCA, Boc-GlnArgArg-7-amino-4-methyl-coumarin] (Boc-Gln-Arg-Arg-{AMC})", "Relative Ratio", 20.2],
  ["Cc1cc(=O)oc2cc(NC(=O)[C@H](CCCNC(=N)N)NC(=O)[C@H](CO)NC(=O)[C@H](Cc3ccccc3)NC(=O)OC(C)(C)C)ccc12 [Boc--PheSerArg--MCA, Boc-PheSerArg-MCA] (Boc-Phe-Ser-Arg-{AMC})", "Relative Ratio", 51.7]
]}

Q. # return recorded Relative Ratio for input Cc1cc(=O)oc2cc(NC(=O)[C@H](CCCCN)NC(=O)[C@H](CCCCN)NC(=O)[C@H](CCC(=O)O)NC(=O)OC(C)(C)C)ccc12 [Boc--GluLysLys--MCA, Boc-GluLysLys-MCA] (Boc-Glu-Lys-Lys-{AMC})
A. 6.3
